Listing: Hepatotoxicity (cirrhosis) of selected compounds
Details: human

compound	Hepatotoxicity (cirrhosis)
CSc1ccc(C(=O)c2[nH]c(=O)[nH]c2C)cc1	0
CO/N=C(\C(=O)N[C@@H]1C(=O)N2C(C(=O)O)=C(CSc3cnns3)CS[C@H]12)c1csc(N)n1	0
CC(=O)OCC(=O)NCCCOc1cccc(CN2CCCCC2)c1 [ROXATIDINE ACETATE]	0
Clc1ccc(COC(Cn2ccnc2)c2ccc(Cl)cc2Cl)c(Cl)c1 (stereo not given)	0
CC/C(=C(/CC)c1ccc(O)cc1)c1ccc(O)cc1	0

* * *

Conditions: human

compound	Hepatotoxicity (choleostasis)
CCNC(=O)[C@@H]1CCCN1C(=O)[C@H](CCCNC(=N)N)NC(=O)[C@H](CC(C)C)NC(=O)[C@@H](CC(C)C)NC(=O)[C@H](Cc1ccc(O)cc1)NC(=O)[C@H](CO)NC(=O)[C@H](Cc1c[nH]c2ccccc12)NC(=O)[C@H](Cc1c[nH]cn1)NC(=O)[C@@H]1CCC(=O)N1 [LEUPROLIDE]	0
C[C@@H](CN1CC(=O)NC(=O)C1)N1CC(=O)NC(=O)C1	0
CC1(C)S[C@@H]2[C@H](NC(=O)Cc3ccccc3)C(=O)N2[C@H]1C(=O)O	9
CN(C)CCC(c1ccc(Cl)cc1)c1ccccn1.O=C(O)/C=C\C(=O)O (configuration not stated) [CHLORPHENIRAMINE MALEATE]	1
COC(F)(F)C(Cl)Cl	0
C[C@]12CCC(=O)C=C1CC[C@@H]1[C@@H]2[C@@H](O)C[C@@]2(C)[C@H]1CC[C@]2(O)C(=O)CO [HYDROCORTISONE]	0
NC(=O)c1csc([C@@H]2O[C@H](CO)[C@@H](O)[C@H]2O)n1	0
